Data credit: PubChem BioAssay (NCI)

test system: OVCAR-3 ovarian; assay: NCI-60 one-dose screen, 48 h (100 = growth as untreated, 0 = no growth, -100 = all killed); details: 10 µM unless noted
This is part of a sample that, as a whole, favours compounds with a hit. Of some 83,000 tested, about 20% had one in any assay.
Measured growth by item
Numbers only here, please. The scale is %.

Worked cases, answers included:
CC(O)c1ncc(/C=C2\SC(=S)N(Cc3ccccc3)C2=O)s1 (stereo unspecified) : 97.2
Cc1ccc(-c2nc(C#N)c(S(=O)(=O)NCCO)o2)cc1 : 41.3
CC(C)(C)C(=O)/C=C/c1ccc([N+](=O)[O-])cc1 : 84.9
COC(=O)Cc1nc(C#N)c(N(C)C)o1 : 109
Cn1c(=O)c2c(nc(NC3=NS(=O)(=O)c4ccccc43)n2Cc2ccccc2)n(C)c1=O : 110

Answer with the recorded growth for the compound listed here: `O=c1oc2c(cnc3ccccc32)cc1-c1cccs1`
119

Answer with the recorded growth for the compound listed here: `CNC(=O)c1cc(Oc2ccc3nc(NC(=O)Nc4ccc(Cl)c(Cl)c4)sc3c2)ccn1`
24.7

Answer with the recorded growth for the compound listed here: `NC(=O)OCCn1cc(-c2nc(-c3c[nH]c4ncccc34)cs2)c2ccccc21`
27.9

Answer with the recorded growth for the compound listed here: `Cc1ccccc1OCC(O)COc1ccccc1C`
114

Answer with the recorded growth for the compound listed here: `O=C(CCCCCCN1CC(=O)N2[C@@H](c3ccc(Cl)cc3)c3[nH]c4ccccc4c3C[C@H]2C1=O)NO`
66.7

Answer with the recorded growth for the compound listed here: Cc1c(N2CN3C[C@H](C)N4CN(c5c(C)n(C)n(-c6ccccc6)c5=O)CN5C[C@@H](C)N(C2)C3C54)c(=O)n(-c2ccccc2)n1C (stereo partly specified)
100
